Values compiled from patent US12227488B2.

Known IKZF1 GFP/RFP Relative Abundance of a selection of molecules
TARGET: IKZF1 (Homo sapiens, UniProt Q13422)
Construct: expressed in transfected cells; host or cells: Flp-In 293
Sequence (Q13422 83-213 isoform Q13422-7 limits assumed): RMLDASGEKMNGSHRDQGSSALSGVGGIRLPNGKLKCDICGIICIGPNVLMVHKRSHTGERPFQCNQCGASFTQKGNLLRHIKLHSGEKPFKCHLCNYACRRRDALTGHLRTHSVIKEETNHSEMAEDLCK
Sequence (Q96SW2 whole entry partner): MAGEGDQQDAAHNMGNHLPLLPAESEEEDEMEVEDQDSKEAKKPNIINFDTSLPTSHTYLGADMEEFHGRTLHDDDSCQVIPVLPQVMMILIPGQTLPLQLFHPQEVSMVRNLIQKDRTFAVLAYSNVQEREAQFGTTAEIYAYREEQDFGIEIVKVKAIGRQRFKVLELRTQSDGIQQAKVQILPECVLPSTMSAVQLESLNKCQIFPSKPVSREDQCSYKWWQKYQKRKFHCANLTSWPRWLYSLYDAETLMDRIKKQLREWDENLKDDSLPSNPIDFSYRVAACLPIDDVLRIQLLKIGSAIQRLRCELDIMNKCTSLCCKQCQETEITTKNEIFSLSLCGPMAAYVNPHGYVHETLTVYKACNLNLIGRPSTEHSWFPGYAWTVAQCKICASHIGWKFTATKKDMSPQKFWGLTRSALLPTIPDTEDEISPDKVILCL
Sequence (Q16531 2-1140 partner limits assumed): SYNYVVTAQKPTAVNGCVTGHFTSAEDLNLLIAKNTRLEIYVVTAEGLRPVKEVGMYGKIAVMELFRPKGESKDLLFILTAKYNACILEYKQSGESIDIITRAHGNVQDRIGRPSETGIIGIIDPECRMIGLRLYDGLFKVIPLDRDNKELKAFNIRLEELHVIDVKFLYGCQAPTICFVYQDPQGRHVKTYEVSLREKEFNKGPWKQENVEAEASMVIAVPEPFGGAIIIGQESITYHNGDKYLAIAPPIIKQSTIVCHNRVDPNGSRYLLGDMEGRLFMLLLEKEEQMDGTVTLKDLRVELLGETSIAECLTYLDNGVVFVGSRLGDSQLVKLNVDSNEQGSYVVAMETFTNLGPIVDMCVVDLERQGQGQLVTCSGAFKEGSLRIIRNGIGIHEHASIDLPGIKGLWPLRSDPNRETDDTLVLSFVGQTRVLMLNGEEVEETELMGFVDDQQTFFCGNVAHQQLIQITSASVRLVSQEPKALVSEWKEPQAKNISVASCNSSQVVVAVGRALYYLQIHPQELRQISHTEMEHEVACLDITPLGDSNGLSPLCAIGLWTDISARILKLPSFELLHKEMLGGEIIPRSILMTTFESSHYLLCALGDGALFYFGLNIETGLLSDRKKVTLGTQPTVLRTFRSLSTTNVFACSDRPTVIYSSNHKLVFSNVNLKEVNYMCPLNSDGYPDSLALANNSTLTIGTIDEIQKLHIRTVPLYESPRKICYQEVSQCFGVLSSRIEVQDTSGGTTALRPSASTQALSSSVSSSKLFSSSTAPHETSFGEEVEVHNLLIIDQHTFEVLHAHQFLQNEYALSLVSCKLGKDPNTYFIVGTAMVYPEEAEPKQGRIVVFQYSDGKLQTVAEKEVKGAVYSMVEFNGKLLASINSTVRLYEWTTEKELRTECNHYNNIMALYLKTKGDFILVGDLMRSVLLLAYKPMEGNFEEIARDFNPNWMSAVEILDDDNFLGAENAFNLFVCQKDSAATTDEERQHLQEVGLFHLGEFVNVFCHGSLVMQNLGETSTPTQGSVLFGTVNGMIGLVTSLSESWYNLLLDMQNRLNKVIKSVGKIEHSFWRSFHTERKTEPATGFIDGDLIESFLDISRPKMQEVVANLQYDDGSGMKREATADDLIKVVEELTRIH
EXPERIMENTAL PROTOCOL: Cellular degradation assay, eGFP-IKZF1Δ fusion with mCherry reporter in Flp-In 293 cells
Type: cell-based
STATED CONDITIONS: compound concentration 2.00E−06; 5 h incubation; n=1
TEST READOUT: IKZF1 GFP/RFP Relative Abundance

INSERT INTO assay_data (molecule, test_readout, measured_number) VALUES
  ('Cc1ccc(NC(=O)N(C)Cc2cccc(NC3=CC(=O)N(C4CCC(=O)NC4=O)C3=O)c2)cc1Cl (stereo not shown)', 'IKZF1 GFP/RFP Relative Abundance', 0.092),
  ('Cc1ccc(NC(=O)NCCc2cccc(NC3=CC(=O)N(C4CCC(=O)NC4=O)C3=O)c2)cc1C(F)(F)F (stereo not shown)', 'IKZF1 GFP/RFP Relative Abundance', 0.072),
  ('Cc1cc(CNC(=O)NC(C)c2cccc(NC3=CC(=O)N(C4CCC(=O)NC4=O)C3=O)c2)ccc1Cl (stereo not shown)', 'IKZF1 GFP/RFP Relative Abundance', 0.110),
  ('Cc1ccc(NC(=O)N2CCc3ccc(NC4=CC(=O)N(C5CCC(=O)NC5=O)C4=O)cc3C2)cc1Cl (stereo not shown)', 'IKZF1 GFP/RFP Relative Abundance', 0.101);

----------
Known IKZF1 GFP/RFP Relative Abundance of a selection of molecules
TARGET: IKZF1 (Homo sapiens)
Construct: expressed in transfected cells; host or cells: Flp-In 293
EXPERIMENTAL PROTOCOL: Cellular degradation assay, eGFP-IKZF1Δ fusion with mCherry reporter in Flp-In 293 cells
Type: cell-based
STATED CONDITIONS: compound concentration 2.00E−06; 5 h incubation; n=1
TEST READOUT: IKZF1 GFP/RFP Relative Abundance

INSERT INTO assay_data (molecule, measured_number) VALUES
  ('Cc1ccc(NC(=O)NCc2cc(NC3=CC(=O)N(C4CCC(=O)NC4=O)C3=O)ccc2OC(=O)N(C)C)cc1Cl (centres unmarked) [Compound 95]', 0.904),
  ('Cc1ccc(NC(=O)NCc2cc(NC(=O)N(C)C)cc(NC3=CC(=O)N(C4CCC(=O)NC4=O)C3=O)c2)cc1Cl (centres unmarked) [Compound 112]', 0.949),
  ('O=C(O)CCCCNC1=CC(=O)N(C2CCC(=O)NC2=O)C1=O (centres unmarked) [Compound 22]', 1.028),
  ('O=C1CCC(N2C(=O)C=C(Nc3ccc4cc[nH]c4c3)C2=O)C(=O)N1 (centres unmarked) [Compound 37]', 0.349),
  ('COC(=O)CN(C)C1=CC(=O)N(C2CCC(=O)NC2=O)C1=O (centres unmarked) [Compound 15]', 1.032),
  ('Cc1ccc(NCc2cccc(NC3=CC(=O)N(C4CCC(=O)NC4=O)C3=O)c2)cc1Cl (centres unmarked) [Compound 63]', 0.068),
  ('CN(C1=CC(=O)N(C2CCC(=O)NC2=O)C1=O)c1ccccc1 (centres unmarked) [Compound 28]', 0.996),
  ('Cc1ccc(CNC(=O)CCc2cccc(NC3=CC(=O)N(C4CCC(=O)NC4=O)C3=O)c2)cc1Cl (centres unmarked) [Compound 121]', 0.093);
